tested on: T1, DLG3_2, Q92796
T1 sequence (Q92796 221-321, limits assumed, looked up): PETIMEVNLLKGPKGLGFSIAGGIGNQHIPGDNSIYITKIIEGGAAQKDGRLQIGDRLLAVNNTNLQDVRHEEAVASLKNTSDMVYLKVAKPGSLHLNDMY
run description: holdup assay
Set-up: key: below the threshold = too weak to quantify, mostly under pKd 3.1 to 4
condition: plain residues with an end cap or a label only (N-terminal biotin on a linker: ttds)
Parameter pKd: see the listing below.
outcome measure: pKd

binder	outcome measure	result
SKPTRRETEV [HPV35-E6, P27228]	pKd	5.49
KKYVDAETSL [SLC4A7, Q9Y6M7]	pKd	3.91
EMDRRPATVV [PLCB4, Q15147]	pKd	4.24
EVVHTPETSV [SLC16A3, O15427]	pKd	4.08
